Hey, just so you know, these numbers are from patent US20110059889A1.

# experimental_target: T1, soluble human FcRn (shFcRn) (human, UniProt P55899 24-297; P61769 21-119)
# T1 construct: Biotinylated for the ELISA, amine-coupled to a CM5 chip for SPR; also called biotinylated shFcRn
# T1 sequence (P55899 24-297 limits assumed, chain 1 of 2): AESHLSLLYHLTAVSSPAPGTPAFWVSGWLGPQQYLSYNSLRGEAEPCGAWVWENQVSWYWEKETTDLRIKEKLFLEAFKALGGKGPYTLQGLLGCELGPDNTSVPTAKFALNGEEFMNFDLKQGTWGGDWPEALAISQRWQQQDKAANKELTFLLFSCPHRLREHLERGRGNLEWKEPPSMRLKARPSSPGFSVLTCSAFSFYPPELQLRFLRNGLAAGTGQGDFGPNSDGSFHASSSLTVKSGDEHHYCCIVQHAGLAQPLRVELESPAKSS
# T1 sequence (P61769 21-119 limits assumed, chain 2 of 2): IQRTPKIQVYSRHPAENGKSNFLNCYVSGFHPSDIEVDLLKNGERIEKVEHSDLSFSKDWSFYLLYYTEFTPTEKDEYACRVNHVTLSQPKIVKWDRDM
# procedure_text: SPR pH 7.4
Bridge positions count the residues as written; N and C are the ends. Square brackets hold non-standard residues; d marks the D form. Ends that are not written are not given here. Pen = CC(C)(S)[C@H](N)C(=O)O
observed_property: Kd

Ask: Can you share its Kd? I mean this binder: QRF[Pen]TGHF[dD]GLYPCNGP-NH2 (disulfide 4-14; N-terminus assumed; SMILES CC(C)C[C@@H]1NC(=O)CNC(=O)[C@@H](CC(=O)O)NC(=O)[C@H](Cc2ccccc2)NC(=O)[C@H](Cc2c[nH]cn2)NC(=O)CNC(=O)[C@H]([C@@H](C)O)NC(=O)[C@@H](NC(=O)[C@H](Cc2ccccc2)NC(=O)[C@H](CCCNC(=N)N)NC(=O)[C@@H](N)CCC(N)=O)C(C)(C)SSC[C@@H](C(=O)N[C@@H](CC(N)=O)C(=O)NCC(=O)N2CCC[C@H]2C(N)=O)NC(=O)[C@@H]2CCCN2C(=O)[C@H](Cc2ccc(O)cc2)NC1=O) [Peptide No. 47]
Result: 4.9 µM
